tested on: OATP1B3-expressing RKO cells
Numbered stars: 1 amine (or outer) side, 2 acyl side, 3 side chain; on linkers, the order of the positions; unused ones are H or OH. Bridge positions count the residues as written; N and C are the ends. Square brackets hold non-standard residues; d marks the D form. Peptide text beside a SMILES is read from it. Adda = CO[C@@H](Cc1ccccc1)[C@@H](C)/C=C(C)/C=C/[C@H](N[*:1])[C@H](C)C(=O)[*:2]; dAsp(3S-Me) = C[C@H](C(=O)[*:3])[C@@H](N[*:1])C(=O)[*:2]; d(γGlu) = O=C(O)[C@@H](CCC(=O)[*:2])N[*:1]; NMeDha = C=C(NC)C(=O)O
Overview of recorded Ratio IC50 B1/B3 RKO for various compounds
Reply with just the number.

These recorded examples may help you get a feel for the data.
C=C1C(=O)N[C@H](C)C(=O)N[C@@H](CC(C)CC)C(=O)N[C@@H](C(=O)O)CC(=O)N[C@@H](CCCNC(=N)N)C(=O)N[C@@H](/C=C/C(C)=C/[C@H](C)[C@H](Cc2ccccc2)OC)[C@H](C)C(=O)N[C@@H](C(=O)O)CCC(=O)N1C (stereo partly drawn) [compound 3, [D-Asp^3]MC-HilR]    0.4
C=C1C(=O)N[C@H](C)C(=O)N[C@@H](CC(C)C)C(=O)N[C@@H](C(=O)O)[C@H](C)C(=O)N[C@@H](Cc2c[nH]c3ccccc23)C(=O)N[C@@H](/C=C/C(C)=C/[C@H](C)[C@H](Cc2ccccc2)OC)[C@H](C)C(=O)N[C@@H](C(=O)O)CCC(=O)N1C [compound 8, LW, reference compound] (W[Adda][d(γGlu)][NMeDha][dA]L[dAsp(3S-Me)]-OH; lactam N-7)    1.4
C=C1C(=O)N[C@H](C)C(=O)N[C@@H](Cc2ccc(O)cc2)C(=O)N[C@@H](C(=O)O)CC(=O)N[C@@H](CCCNC(=N)N)C(=O)N[C@@H](/C=C/C(C)=C/[C@H](C)[C@H](Cc2ccccc2)OC)[C@H](C)C(=O)N[C@@H](C(=O)O)CCC(=O)N1C [compound 14, [D-Asp^3]MC-YR]    3.1
C/C=C1/NC(=O)CC[C@H](C(=O)O)NC(=O)[C@@H](C)[C@H](/C=C/C(C)=C/[C@H](C)[C@H](Cc2ccccc2)OC)NC(=O)[C@H](Cc2c[nH]c3ccccc23)NC(=O)C[C@H](C(=O)O)NC(=O)[C@H](CC(C)C)NC(=O)[C@@H](C)NC1=O [compound 9, [D-Asp^3,(E)-Dhb^7]-MC-LW]    1.4
C=C1C(=O)N[C@H](C)C(=O)N[C@@H](CC(C)C)C(=O)N[C@@H](C(=O)O)[C@H](C)C(=O)N[C@@H](CCCNC(=N)N)C(=O)N[C@@H](/C=C/C(C)=C/[C@H](C)[C@H](Cc2ccccc2)OC)[C@H](C)C(=O)N[C@@H](C(=O)O)CCC(=O)N1C [compound 1, MC-LR, reference compound] (R[Adda][d(γGlu)][NMeDha][dA]L[dAsp(3S-Me)]-OH; lactam N-7)    0.3

Task: So what's the measured Ratio IC50 B1/B3 RKO for this one? C=C1C(=O)N[C@H](C)C(=O)N[C@@H](CC(C)C)C(=O)N[C@@H](C(=O)O)CC(=O)N[C@@H](CCCNC(=N)N)C(=O)N[C@@H](/C=C/C(C)=C/[C@H](C)[C@H](Cc2ccccc2)OC)[C@H](C)C(=O)N[C@@H](C(=O)O)CCC(=O)N1C [compound 2, [D-Asp^3]MC-LR]
Output: 0.2

Task: Do the same for C=C1C(=O)N[C@H](C)C(=O)N[C@@H](CCCNC(=N)N)C(=O)N[C@@H](C(=O)O)[C@H](C)C(=O)N[C@@H](Cc2ccccc2)C(=O)N[C@@H](/C=C/C(C)=C/[C@H](C)[C@H](Cc2ccccc2)OC)[C@H](C)C(=O)N[C@@H](C(=O)O)CCC(=O)N1C [compound 12, MC-RF] (F[Adda][d(γGlu)][NMeDha][dA]R[dAsp(3S-Me)]-OH; lactam N-7) please
Output: 17.2

Task: What do we get for C/C=C1/NC(=O)CC[C@H](C(=O)O)NC(=O)[C@@H](C)[C@H](/C=C/C(C)=C/[C@H](C)[C@H](Cc2ccccc2)OC)NC(=O)[C@H](Cc2c[nH]c3ccccc23)NC(=O)C[C@H](C(=O)O)NC(=O)[C@H](CCc2ccc(O)cc2)NC(=O)[C@@H](C)NC1=O [compound 20, [D-Asp^3,(E)-Dhb^7]MC-HtyW] ?
Output: 1.9

Task: Next: C/C=C1/NC(=O)CC[C@H](C(=O)O)NC(=O)[C@@H](C)[C@H](/C=C/C(C)=C/[C@H](C)[C@H](Cc2ccccc2)OC)NC(=O)[C@H](CCCNC(=N)N)NC(=O)C[C@H](C(=O)O)NC(=O)[C@H](Cc2ccc(O)cc2)NC(=O)[C@@H](C)NC1=O [compound 15, [D-Asp^3,(E)-Dhb^7]MC-YR]
Output: 4.0

Task: Then this compound: C/C=C1/NC(=O)CC[C@H](C(=O)O)NC(=O)[C@@H](C)[C@H](/C=C/C(C)=C/[C@H](C)[C@H](Cc2ccccc2)OC)NC(=O)[C@H](CCCNC(=N)N)NC(=O)C[C@H](C(=O)O)NC(=O)[C@H](CC(C)CC)NC(=O)[C@@H](C)NC1=O (stereo partly drawn) [compound 4, [D-Asp^3,(E)-Dhb^7]MC-HilR]
Output: 15.0

Value source: paper PMC3948918
